target: HIV integrase (Human immunodeficiency virus type 1 group M subtype B, UniProt P12497, F1332H); construct: HIV integrase full length gene; test: Determination of enzyme (HIV integrase) inhibitory activity; details: recombinant HIV integrase (F185H), strand transfer ELISA, absorbance at 450 nm
pIC50: −log10 of the molar value. Counter-ions that a name gives are not always drawn.
Attribute: pIC50

O=C1c2c(O)c(=O)c(-c3cnccn3)cn2CCN1Cc1ccc(F)cc1 [Example 417, hydrochloride] | 7.00 to 8.00
O=c1c(-c2ccccc2)cn2ccn(Cc3cccc(Cl)c3)c(=O)c2c1O [Example 96, hydrochloride] | > 8.00
O=C1c2c(O)c(=O)c(-c3nccs3)cn2CCN1Cc1ccc(Cl)c(F)c1 | > 8.00
O=C(O)Cc1cn2ccn(Cc3cccc(Cl)c3)c(=O)c2c(O)c1=O | 7.00 to 8.00
O=C(Nc1cn2ccn(Cc3cccc(Cl)c3)c(=O)c2c(O)c1=O)c1cccnc1 [Example 286, trifluoroacetate] | > 8.00

Reported pIC50, molecule O=C(NCc1ccccn1)c1cn2c(c(O)c1=O)C(=O)N(Cc1cccc(Cl)c1)CC2 [Example 372, hydrochloride] : ____
7.00 to 8.00

Also need CC(C)C(=O)c1cc(=O)c(O)c2n1CCN(Cc1ccc(Cl)c(Cl)c1)C2=O , thanks.
> 8.00

Input COc1ccnc(CNC(=O)c2cn3c(c(O)c2=O)C(=O)N(Cc2ccc(F)cc2)CC3)n1 [Example 426, hydrochloride]
7.00 to 8.00

Now the same for CC(C)C(O)c1cn(Cc2ccc(Cl)c(Cl)c2)c(=O)c2c(O)c(=O)ccn12 (stereo not drawn)
> 8.00

Reference source: patent US7211572B2
